System: Escherichia coli TOP10
Test Name: shrunken log2 fold change of peptide-encoding DNA abundance (4.5 h post-induction vs induction); higher = less antimicrobial activity (less host growth inhibition)
Applied Conditions: time post-induction: 4.5 h; library: site-saturation at positions 5, 18, 19, 20
Assay Endpoint: shrunken log2 fold change
Answers are plain numbers.

RRIRQRPPRLPRPRPRPIPYPRP	-0.0122
RRIRCRPPRLPRPRPRPCPVPRP	-0.28
RRIRCRPPRLPRPRPRPMFAPRP	0.186
RRIRGRPPRLPRPRPRPVQPPRP	0.95
RRIRQRPPRLPRPRPRPQHPPRP	-0.131
RRIRNRPPRLPRPRPRPFGKPRP	-0.0788
RRIRLRPPRLPRPRPRPWHAPRP	-0.194
RRIRQRPPRLPRPRPRPGPDPRP	0.163
RRIRTRPPRLPRPRPRPIDRPRP	-0.148
RRIRWRPPRLPRPRPRPCENPRP	0.285

Return reported shrunken log2 fold change values for all items listed beneath this line.
1. RRIRHRPPRLPRPRPRPIGYPRP
2. RRIRKRPPRLPRPRPRPILNPRP
3. RRIRIRPPRLPRPRPRPDPLPRP

1. 0.0062
2. -0.158
3. -0.326

Return reported shrunken log2 fold change values for all items listed beneath this line.
1. RRIRRRPPRLPRPRPRPILHPRP
2. RRIRWRPPRLPRPRPRPPVKPRP

[-0.0819, 0.644]

----------
System: Escherichia coli TOP10
Test Name: shrunken log2 fold change of peptide-encoding DNA abundance (4.5 h post-induction vs induction); higher = less antimicrobial activity (less host growth inhibition)
Applied Conditions: time post-induction: 4.5 h; library: site-saturation at positions 5, 18, 19, 20
Hi there, I'd appreciate the recorded shrunken log2 fold change for every entry that follows.
One number for each entry.

Example results:
RRIRIRPPRLPRPRPRPDVAPRP	-0.206
RRIRPRPPRLPRPRPRPDIDPRP	-0.144
RRIRIRPPRLPRPRPRPNSTPRP	-0.722
RRIRWRPPRLPRPRPRPAGIPRP	0.186
RRIRDRPPRLPRPRPRPNWHPRP	0.144

Return reported shrunken log2 fold change values for all items listed beneath this line.
1. RRIRWRPPRLPRPRPRPTSLPRP
2. RRIRDRPPRLPRPRPRPCIDPRP
3. RRIRGRPPRLPRPRPRPSGKPRP
4. RRIRHRPPRLPRPRPRPTIDPRP
5. RRIRHRPPRLPRPRPRPENHPRP
6. RRIRWRPPRLPRPRPRPWEPPRP
7. RRIRFRPPRLPRPRPRPRAEPRP
8. RRIRMRPPRLPRPRPRPWNAPRP

0.0239
0.0188
0.367
-0.252
-0.235
-0.0178
0.363
-0.0284

Return reported shrunken log2 fold change values for all items listed beneath this line.
1. RRIRWRPPRLPRPRPRPTAYPRP
2. RRIRSRPPRLPRPRPRPGKPPRP

1: 0.0204; 2: 0.0657

----------
Tested on: Escherichia coli TOP10
Test Name: shrunken log2 fold change of peptide-encoding DNA abundance (4.5 h post-induction vs induction); higher = less antimicrobial activity (less host growth inhibition)
Applied Conditions: time post-induction: 4.5 h; library: site-saturation at positions 5, 18, 19, 20
Hi, to clarify the labels: true (1) covers shrunken log2 fold change from -0.008 upward, false (0) covers anything below -0.008.

RRIRERPPRLPRPRPRPRMHPRP	true (1)
RRIRNRPPRLPRPRPRPNGGPRP	true (1)
RRIRQRPPRLPRPRPRPVTDPRP	true (1)
RRIRCRPPRLPRPRPRPMSAPRP	false (0)
RRIRSRPPRLPRPRPRPKRDPRP	true (1)
RRIRCRPPRLPRPRPRPWNMPRP	false (0)
RRIRNRPPRLPRPRPRPMCYPRP	false (0)
RRIRYRPPRLPRPRPRPARAPRP	true (1)

Tell me whether shrunken log2 fold change is at least -0.008 here: RRIRERPPRLPRPRPRPKEIPRP
false (0)

Tell me whether shrunken log2 fold change is at least -0.008 here: RRIRNRPPRLPRPRPRPDNKPRP
false (0)

Tell me whether shrunken log2 fold change is at least -0.008 here: RRIRSRPPRLPRPRPRPFIKPRP
false (0)

Tell me whether shrunken log2 fold change is at least -0.008 here: RRIRKRPPRLPRPRPRPEPLPRP
true (1)

Tell me whether shrunken log2 fold change is at least -0.008 here: RRIRERPPRLPRPRPRPYCEPRP
false (0)

Tell me whether shrunken log2 fold change is at least -0.008 here: RRIRFRPPRLPRPRPRPNVQPRP
false (0)

Tell me whether shrunken log2 fold change is at least -0.008 here: RRIRCRPPRLPRPRPRPQMNPRP
false (0)

Tell me whether shrunken log2 fold change is at least -0.008 here: RRIRVRPPRLPRPRPRPFDVPRP
false (0)

Tell me whether shrunken log2 fold change is at least -0.008 here: RRIRARPPRLPRPRPRPYEAPRP
false (0)

Tell me whether shrunken log2 fold change is at least -0.008 here: RRIRFRPPRLPRPRPRPYDRPRP
false (0)

Tell me whether shrunken log2 fold change is at least -0.008 here: RRIRTRPPRLPRPRPRPMWLPRP
false (0)

Tell me whether shrunken log2 fold change is at least -0.008 here: RRIRCRPPRLPRPRPRPWKPPRP
true (1)

Tell me whether shrunken log2 fold change is at least -0.008 here: RRIRTRPPRLPRPRPRPYPSPRP
false (0)

Tell me whether shrunken log2 fold change is at least -0.008 here: RRIRFRPPRLPRPRPRPAPAPRP
true (1)

Tell me whether shrunken log2 fold change is at least -0.008 here: RRIRRRPPRLPRPRPRPTVEPRP
true (1)

Tell me whether shrunken log2 fold change is at least -0.008 here: RRIRHRPPRLPRPRPRPNTPPRP
true (1)

Tell me whether shrunken log2 fold change is at least -0.008 here: RRIRIRPPRLPRPRPRPFWRPRP
false (0)

Tell me whether shrunken log2 fold change is at least -0.008 here: RRIRTRPPRLPRPRPRPTDCPRP
true (1)

Tell me whether shrunken log2 fold change is at least -0.008 here: RRIRHRPPRLPRPRPRPWTGPRP
false (0)

Tell me whether shrunken log2 fold change is at least -0.008 here: RRIRIRPPRLPRPRPRPTNIPRP
false (0)

Tell me whether shrunken log2 fold change is at least -0.008 here: RRIRIRPPRLPRPRPRPGEFPRP
false (0)

Tell me whether shrunken log2 fold change is at least -0.008 here: RRIRGRPPRLPRPRPRPHTIPRP
true (1)

Tell me whether shrunken log2 fold change is at least -0.008 here: RRIRDRPPRLPRPRPRPGYNPRP
false (0)

Tell me whether shrunken log2 fold change is at least -0.008 here: RRIRRRPPRLPRPRPRPIWNPRP
true (1)

----------
Hi there, I'd appreciate the recorded shrunken log2 fold change for every entry that follows.
Test system: Escherichia coli TOP10
Test Name: shrunken log2 fold change of peptide-encoding DNA abundance (4.5 h post-induction vs induction); higher = less antimicrobial activity (less host growth inhibition)
Applied Conditions: time post-induction: 4.5 h; library: site-saturation at positions 5, 18, 19, 20
One number for each entry.

Example results:
RRIRARPPRLPRPRPRPQAFPRP	-0.323
RRIRGRPPRLPRPRPRPRNQPRP	0.402
RRIRYRPPRLPRPRPRPKYTPRP	-0.415
RRIRCRPPRLPRPRPRPLWVPRP	-0.1
RRIRHRPPRLPRPRPRPSGVPRP	-0.115

Return reported shrunken log2 fold change values for all items listed beneath this line.
1. RRIRIRPPRLPRPRPRPTHVPRP
2. RRIRDRPPRLPRPRPRPMLHPRP

1. -0.0979
2. 0.202

----------
System: Escherichia coli TOP10;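 also: peptides expressed intracellularly from a pBAD plasmid library in pooled LB shake-flask culture, induced with 0.3% L-arabinose, DNA abundance read by NGS, three biological replicates, DESeq2 with apeglm shrinkage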
Test Name: shrunken log2 fold change of peptide-encoding DNA abundance (4.5 h post-induction vs induction); higher = less antimicrobial activity (less host growth inhibition)
Applied Conditions: time post-induction: 4.5 h; library: site-saturation at positions 5, 18, 19, 20
Assay Endpoint: shrunken log2 fold change
Numbers only.

Example results:
RRIRDRPPRLPRPRPRPFTSPRP	-0.0273
RRIRQRPPRLPRPRPRPEVKPRP	-0.0062

Return reported shrunken log2 fold change values for all items listed beneath this line.
1. RRIRDRPPRLPRPRPRPSSGPRP
2. RRIRKRPPRLPRPRPRPKRKPRP
3. RRIRKRPPRLPRPRPRPCDLPRP
4. RRIRCRPPRLPRPRPRPKDCPRP
5. RRIRRRPPRLPRPRPRPHHLPRP
6. RRIRIRPPRLPRPRPRPSWCPRP

1. -0.0626
2. 0.89
3. 0.209
4. -0.0763
5. -0.0855
6. -0.532
